Read-out: Monocyte Chemoattractant Protein-1 (MCP1), CCL2 (gene 6347)
Assay: BSK_LPS_MCP1: BioMAP Diversity Plus: LPS Assay for Monocyte Chemoattractant Protein-1 (MCP1) Biomarker Activity (AID 2283081)
Details: primary human HUVEC with PBMC; actives raise or lower the signal
Calls of active or inactive are those of the source. How the source made its calls: active means hit-call score of the fitted dose curve at least 0.9, where 1 is the maximum; inactive means score below 0.9.
Parameter call: string, one of 1 (yes) for active, 0 (no) for inactive

Reference set, count: 3
Cn1cc(-c2ccccc2)c(=O)c(-c2cccc(C(F)(F)F)c2)c1; 0 (no)
O=P(OCCCl)(OCCCl)OCCCl; 0 (no)
CCCCOC(=O)c1ccccc1C(=O)OCc1ccccc1; 0 (no)

## Task Fill in: this test's call for `O=C(Oc1ccc(Br)cc1)N1CCN2CCC1CC2` is ___
## Result 0 (no)

## Task Fill in: this test's call for `c1ccc(NNc2ccccc2)cc1` is ___
## Result 0 (no)

## Task Fill in: this test's call for `[Cl-].[Cl-].[Hg+2]` is ___
## Result 0 (no)

## Task Fill in: this test's call for `Cc1cccc(N)c1N` is ___
## Result 0 (no)

----------
Assay: ATG_MRE_CIS: Attagene CIS-FACTORIAL HepG2 Assay for human Metal Responsive Element (MRE) (AID 2282954)
Conditions: HepG2 MRE cis-reporter transcription, Attagene multiplex; actives raise or lower the signal
Procedure: ATG_CIS is a cell-based, multiplexed-readout assay that uses HepG2, a human liver cell line, with measurements taken at 24 hours after chemical dosing in a 24-well plate.ATG_MRE_CIS is one of 52 assay component(s) measured or calculated from the ATG_CIS assay. […] This assay endpoint, ATG_MRE_CIS, was analyzed with bidirectional fitting relative to DMSO as the negative control and baseline of activity. […]
Calls of active or inactive are those of the source. The calls were made as follows: active = hit-call score of the fitted dose curve at least 0.9, where 1 is the maximum; inactive = score below 0.9.
propertyLabel: outcome

Cn1cc(-c2ccccc2)c(=O)c(-c2cccc(C(F)(F)F)c2)c1; inactive
CCN(CC)N=O; inactive
ClCCOCCCl; inactive

----------
Read-out: Thrombomodulin, THBD (gene 7056)
Assay: BSK_CASM3C_Thrombomodulin: BioMAP Diversity Plus: CASM3C Assay for Thrombomodulin Biomarker Activity (AID 2283051);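 further: thrombomodulin protein level measured by ELISA 24 h after dosing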
Settings: primary human coronary artery smooth muscle cells; actives raise or lower the signal
Active and inactive are the calls of the source. The calls were made as follows: active = hit-call score of the fitted dose curve at least 0.9, where 1 is the maximum; inactive = score below 0.9.
Parameter call: string, one of active, inactive

COP(=S)(OC)SCN1C(=O)c2ccccc2C1=O; inactive
CCCCC(CC)COC(=O)c1ccc(C(=O)OCC(CC)CCCC)c(C(=O)OCC(CC)CCCC)c1 (stereo not given); inactive
Clc1ccc(C(c2ccc(Cl)cc2)C(Cl)Cl)cc1; active
OCCOCCO; inactive
CCN(CC)CCO; inactive

## Task Fill in: this test's call for `Cc1ccc(N=C=O)cc1N=C=O` is ___
## Result inactive

## Task Fill in: this test's call for `CCN(CC)N=O` is ___
## Result inactive

## Task Fill in: this test's call for `c1ccc2c(c1)-c1cccc3cccc-2c13` is ___
## Result inactive

## Task Fill in: this test's call for `Nc1ccc(Cl)cc1N` is ___
## Result active

## Task Fill in: this test's call for CCOc1cccc(C2(N3CCN(c4ccccc4)CC3)CCC(C)CC2)c1 (stereo not given) is ___
## Result inactive

## Task Fill in: this test's call for CCCCCCCCCCCCCN1CC(C)OC(C)C1 (stereo not given) is ___
## Result inactive

## Task Fill in: this test's call for `[O-][Cl+]O` is ___
## Result inactive

## Task Fill in: this test's call for `N#CC(Br)Br` is ___
## Result inactive

## Task Fill in: this test's call for `CC(C)(OOC(C)(C)c1ccccc1)c1ccccc1` is ___
## Result active

## Task Fill in: this test's call for `CC(C)N(Cc1ccccc1)C(=O)C(C)(C)C` is ___
## Result inactive
